Below, each entry is listed alongside its reported log10(IC50).
# test.system: purified Na^+,K^+ -ATPase (Homo sapiens)
# protocol.summary: inhibition of the activity of the purified Na+,K+-ATPase (% hydrolysis of 32P-ATP)
# Format: biochemical
# measurement.parameters: purified Na+,K+-ATPase; read-out: Inhibitory Activity log IC50 (converted)
quantity.measured: log10(IC50) (log10 of the value in nM)

{"compound": "CN(C)CCON=CC[C@H]1CC[C@]2(O)[C@@H]3CC[C@@H]4C[C@@H](O)CC[C@]4(C)[C@H]3CC[C@]12C (mixture of isomers) [Comp. I-bh]", "numeric.result": 2.80}
{"compound": "CN(C)CCON=C/C=C/[C@H]1CC[C@]2(O)[C@@H]3CC[C@@H]4C[C@@H](OCCCN)CC[C@]4(C)[C@H]3CC[C@]12C (mixture of isomers) [Comp. 1-ce]", "numeric.result": 1.30}
{"compound": "C[C@]12CC[C@H](O)C[C@H]1CC[C@@H]1[C@@H]2CC[C@]2(C)[C@@H](CC=NNC3=NCCN3)CC[C@]12O (mixture of isomers) [Comp. I-bd]", "numeric.result": 2.80}
{"compound": "CN(C)CCON=C/C=C/[C@H]1CC[C@]2(O)[C@@H]3CC[C@@H]4C[C@@H](O)CC[C@]4(C)[C@H]3CC[C@]12C (mixture of isomers) [Comp. I-aq]", "numeric.result": 1.50}
{"compound": "C[C@]12CC[C@H](OCCN3CCCC3)C[C@H]1CC[C@@H]1[C@@H]2CC[C@]2(C)[C@@H](/C=C/C=NNC(=N)N)CC[C@]12O [Comp. I-bx]", "numeric.result": 2.10}
{"compound": "CN(C)CCON=CCC[C@H]1CC[C@]2(O)[C@@H]3CC[C@@H]4C[C@@H](O)CC[C@]4(C)[C@H]3CC[C@]12C (mixture of isomers) [Comp. I-bn]", "numeric.result": 2.00}
